# PROTOCOL SUMMARY: Metabolic stability (substrate depletion) in human liver microsome Phase I incubations
# PROTOCOL CONDITIONS: HLM incubations; scaled with 45 mg microsomal protein/g liver and 26 g liver/kg b.w.
We use 20 mLmin^−1 kg^−1 as the dividing line for intrinsic clearance (CLint): on or above the line is 1.0, below is 0.0.

Below are worked cases with known answers.
{"columns": ["COMPOUND", "DISCRETE LABEL"],
 "data": [
  ["CNC(C)C(=O)c1cccc(Cl)c1 (centres unmarked) [3-CMC, 3′-chloromethcathinone]", 0.0],
  ["CCC(C(=O)c1ccc(C)cc1)N(C)C (centres unmarked) [4-MDMB, 4′-methyl-N,N-dimethylbufedrone]", 1.0],
  ["CCNC(CC)C(=O)c1ccc(C)cc1 (centres unmarked) [4-MNEB, 4′-methyl-N-ethylbufedrone]", 0.0]
]}

Record CCCC(NCC)C(=O)c1ccc(C)cc1 (centres unmarked) [4-MEAP, 4′-methyl-N-ethylnorpentedrone] ; criterion: intrinsic clearance (CLint) no lower than 20 mLmin^−1 kg^−1. Met? 1.0

Record CNC(C)C(=O)c1ccc(Cl)cc1 (centres unmarked) [4-CMC, 4′-chloromethcathinone] ; criterion: intrinsic clearance (CLint) no lower than 20 mLmin^−1 kg^−1. Met? 0.0
